- Test system: MS2 coat protein
- procedure text: apparent KD of MS2 coat protein; designed switch direction (-1 OFF switch, 1 ON switch): -1; higher = weaker reporter binding
- conditions used: input ligand: none
Collected apparent KD of MS2 coat protein values appear next to each entry.
I only need the number, in nM, no unit after it.

sequence input	apparent KD of MS2 coat protein (nM)
UAUUUACAUGAGGAUCACCCAUGUCAGGAUAUGUUUCUAUCGUCGAAAGACGAUAGUUGCAGAAGGGACAAUAU [LRO-Excl01-25 mod derived from EliFisker 4.24] (Eterna round: R97, puzzle: Exclusion 1)	48.5

Q: What apparent KD of MS2 coat protein value was documented for this sequence, GCCUCACUUGAGGAUCACCCAAGUCAGGAUAUCUACAAGCCGGCCAUACCGGCUUGCAAGAGAAGGGACUCUAA [Xemamaqu] (Eterna round: R97, puzzle: Exclusion 1) ?
Result: 38.5

Q: # input sequence: UUGCCUAGUGUUAGGAUAUGCGACGGGUGACCGUUGCAGAAGGAACAUGAGGAUCACCCAUGUUUAAUAAAAUC [JL-BMX4-4.44 ViennaUCT mod] (Eterna round: R97, puzzle: Brourd's mod of Exclusion 4) ; wanted: its apparent KD of MS2 coat protein
Result: 13.2

Q: Need apparent KD of MS2 coat protein, item GACCAGGUAGGAUAUGCAGGGUAGGACUUGAGGAUCACCCAAGUGGCCAAAGUGCGUCCCGCAGAAGGGCCGAACC [Teararatbi] (Eterna round: R97, puzzle: Exclusion 5)
Result: 386

Q: Endpoint output: apparent KD of MS2 coat protein of ACGAGCAGACGGAGAUCCAACAUGAGGAUCACCCAUGUCUGGAAAGCUUUUUGCUUGUCUUAUCCUCCUCUGUUAGC [Design #10] (Eterna round: R97, puzzle: Sensor, turn-off variant 1) . Value?
Result: 11.9

* * *

- Test system: MS2 coat protein
- procedure text: apparent KD of MS2 coat protein; designed switch direction (-1 OFF switch, 1 ON switch): 1; higher = weaker reporter binding
- conditions used: Eterna round: R95; input ligand: microRNA oligo, concentration not stated
Is apparent KD of MS2 coat protein at least 40 nM? Then yes. If not, no.

Completed entries (count: 3):
sequence input	label
UUUUUUUUGACGAGACAAGCUUUUUGAUCACAUGAGGAUCACCCAUGUCUCGUCUUAUUUUUUUUUUUUUUUUUUUU [BA Sensor hsa-mir-208a - 2 - 2] (puzzle: Sensor for hsa-mir-208a)	no
AUAAAACAUGAGGAUCACCCAUGUCAACAAAGUCGAGGAUAUUGGCAAAUAAAAUAAGAACCAGAAGGCGAAUAAU [salish99_ss1_r3_050] (puzzle: Same State 1)	no
AUAAAACAUGAGGAUCACCCAUGUCUCCAAAGUCGAGGAUAUGGGCAAAUAAUAUAAGAACCAGAAGGCGAAUAAU [SS1 Teenbexe 2] (puzzle: Same State 1)	yes

Q: Determine whether this sequence has apparent KD of MS2 coat protein no lower than 40 nM: AAGACAUUUGCUUAGGAUAUACAGGGCUCCACAUGAGGAUCACCCAUGUUAAAAGAGGAGUAAAUGUAGAAGGAAGCCUCCAAUA [Zazaes] (puzzle: Same State 2)
Result: yes

Q: API: above_or_equal(metric=apparent KD of MS2 coat protein, cutoff=40 nM) for item CGUCGCUGUCGAGAGGAUAUGCGGUGAUGGACAUGAGGAUCACCCAUGUUAGCGAUAGCAUCGCGGCAGAAGGCUCUUACGACUG [Soteed Omei mod 28] (puzzle: Same State 2)
Result: no

Q: Does GUAAAACAUGAGGAUCACCCAUGUCAUCUAAGUCGAGGAUAUGGGAAUUAAUUAAUUAAACCAGAAGGCGAAAUUG [Mat - Same State 1 - D97] (puzzle: Same State 1) have a reported apparent KD of MS2 coat protein of at least 40 nM?
Result: yes

Q: Is reported apparent KD of MS2 coat protein greater than or equal to 40 nM here: AAUAUACAUGAGGAUCACCCAUGUUAGUAAAUGACAGGAUAUCGAAUAAAUAAAUAAUAACGAGAAGGGUCUAAUA [JMF's solution 3] (puzzle: Same State 1)
Result: no

Q: Does the reported apparent KD of MS2 coat protein for AACAAUCUAUCUGAGGAUAUCAUGAAAUAAACAUGAGGAUCACCCAUGUGCAGGAAAACUGCAUAUUAGAAGGCAGAUAGAUUGA [salish99_ss2_r3_049] (puzzle: Same State 2) fall at or above the 40 nM mark?
Result: no

* * *

Quick reference: apparent KD of MS2 coat protein of the listed items.
- Test system: MS2 coat protein
- procedure text: apparent KD of MS2 coat protein; higher = weaker reporter binding
- conditions used: Eterna round: R107; input ligand: arginine 13.2 mM
Quick note: give the figure in nM, leave out the unit.

// known answers, use as guide
sequence input	tgt	apparent KD of MS2 coat protein [nM]
AACCGAGGCUAUCCUCUAAGACUAUGUGAUACCAGAAUAAUUUUAUUCCCUUGGCAGCAUGACAUGAGGAUCACCCAUGUCUCUU [SSTheo A #8]	MS2 coat protein	21
UAUGCACAUGAGGAUCACCCAUGUAUGGAAGGAGCGGUGAAUGAACCAGGUAGGUCGCCAUGGUGAGGAUCAUCUAUGUAAUCGU [Exclusion - Arginine A (Freestyle 7)]	MS2 coat protein	38.9
UAUAUAAUAACAGAUACCAGCGUGUUAUAAAACAUGAGGAUCACCCAUGUAGUGAUCAAGCGCCCUUGGCAGCUGGUAUUAUAUA [7.A]	MS2 coat protein	123
UAUCCACAUGAGGAUCACCCAUGUUAGGAAGGAGCGGUGAAUGCACCAGGUAGGUCGCCUAGCUGAGGACUGUCGAUGGAUUCGU [Exclusion - Arginine A (Freestyle 18)]	MS2 coat protein	23.3
GACAUGAGGAUCACCCAUGUACCGCGAGAAGGAGCGCGGAUAAACGCAGGUAGGUCGCUCGUGGGCUUUUAUUCAAUCGAAAGCU [Zaesar]	MS2 coat protein	26.8

Consider the record given below.
Q: // returns reported apparent KD of MS2 coat protein for input AAACGCCACGGAAGGAGCGACAUGAGGAUCACCCAUGUAGUUUUGGCGGAUGCACCCUCCUGUCAGGUAGGUCGCCGUGCGAUAA [XArg-B26]
Result: 32.6

* * *

- Tested on: MS2 coat protein
- procedure text: apparent KD of MS2 coat protein; designed switch direction (-1 OFF switch, 1 ON switch): -1; higher = weaker reporter binding
- conditions used: input ligand: FMN 200 uM
# maps each entry to its apparent KD of MS2 coat protein

Example cases with answers are listed next.
sequence input	test value
GGAUUACAUGAGGAUCACCCAUGUGAGGAUAUCCCGACAGGUUGCAGAGAACCUCGUAGGAGAAGGCACAGGCG [EX1 B.12] (Eterna round: R97, puzzle: Exclusion 1)	0.234 µM
AAGGGUGCCUUUAGAACGACAUGAGGAUCACCCAUGUAGACUGAGGAUAUCUACUCCUAAGGACCGGAGAAGGCAGUGUAAUGC [Ex NG3 #63] (Eterna round: R96, puzzle: Exclusion NG 3)	0.0721 µM
ACAAGCUUAAAAAUCCUAAACAUGAGGAUCACCCAUGUUCGUCUUAUAAAAAUAAAAAUAAAAAACAAAAAAUAAAA [Sensor V2: 71] (Eterna round: R96, puzzle: Sensor v2, turn-off variant)	0.039 µM
GGCCUUCCGCGAGCUUUUUACAUGAGGAUCACCCAUGUGGUUUUUAGUCUUAUGCCCGGGCCCGUGUGGGCCCGGGC [-33.7, -54.7, A 12%] (Eterna round: R97, puzzle: Sensor, turn-off variant 1)	0.0276 µM
AAAUGAAAGGCAGGAUAUCGUACUGAUCUUUGUCGAGAAGGGCCAGGGUCCCUCGGCUACAUGAGGAUCACCCAUGUUAAAAGA [Onabele] (Eterna round: R96, puzzle: Exclusion NG 1)	0.0569 µM

Q: Under MS2 coat protein: apparent KD of MS2 coat protein value of GAAUGAGAGCAGGAUAUCUUAUCAAUGUACGAAAGAGAAGGGCUCACAUGAGGAUCACCCAUGUGGUCCUAGAU [jl-ex6-4.66 jandersonlee mod] (Eterna round: R97, puzzle: Exclusion 6) ?
Result: 0.576 µM

Q: API: value(readout= apparent KD of MS2 coat protein, system= MS2 coat protein, query= ACUCCUCCUGUUAGGAUAUGCAUCGGGCUUCCGCAGCAGAAGGAACAUGAGGAUCACCCAUGUCAAAUAAAAUC (Eterna round: R97, puzzle: Brourd's mod of Exclusion 4) )
Result: 0.243 µM

Q: Return apparent KD of MS2 coat protein measured with MS2 coat protein given this sequence: AGUACUAACACGCAUGUGUUAGUACAAUAAGCUUGUGAAACAUGAGGAUCACCCAUGUCCUCAUAAGCUCGUCUUAU [salish99_TOv2_r3_068] (Eterna round: R96, puzzle: Sensor v3, turn-off variant 2)
Result: 0.0148 µM

Q: For MS2 coat protein, provide apparent KD of MS2 coat protein of CCUUGACAUGAGGAUCACCCAUGUUAGGAUAUAACAUUUGACACUACAGUAUGAAGUGUUAGAAGGGAUAUGGG [-22.5, -21 kcal, A 32%] (Eterna round: R97, puzzle: Exclusion 1) please.
Result: 0.0394 µM

Q: Request body: readout apparent KD of MS2 coat protein, system MS2 coat protein, query AAAUCGUGAGGAUAUCCAAUAUAUGACAUGAGGAUCACCCAUGUUUCCACUCGUACCUCCGGAGAAGGCACAGUUA [Ex5 #73] (Eterna round: R97, puzzle: Exclusion 5) . Return the value.
Result: 0.0247 µM

Q: Give recorded apparent KD of MS2 coat protein with MS2 coat protein for the following sequence: ACAUGAGGAUCACCCAUGUGAAAACAAUGGCUGACUUUGAGAUAGGAUAUUGGUGCAUAUCAAACCAAGAAGGGUCAUUACUGG [Deportation 92 - Jieux - Exclusion NG 3] (Eterna round: R96, puzzle: Exclusion NG 3)
Result: 0.0375 µM

Q: Please tell me: apparent KD of MS2 coat protein of GGCAUGCAAGGAUAUACUUGAAGUGAUGUUCGAUAAAGUCUACUUGAGGAUCACCCAAGUAGAAGGUGCAUGCC [Exclusion 2 (Mod5.1 JL EX2 4.74 Vienna UCT mod of Mamaed)] (Eterna round: R97, puzzle: Exclusion 2) , system MS2 coat protein?
Result: 0.108 µM

Q: # get_value(readout= apparent KD of MS2 coat protein, system= MS2 coat protein) for GCACUGCGAGGAUAUACAUGAGGAUCACCCAUGUAUCGGUAGUCAAGGUUAAUUUAAGGUAGAAGGCGCGUAUU [JR_Ex3_Sub006] (Eterna round: R97, puzzle: Exclusion 3)
Result: 0.0239 µM

Q: Form field: apparent KD of MS2 coat protein recorded for AGUAUGCGAGGAUAUACAUGAGGAUCACCCAUGUGAGAGAUAAAAGUGAGAAAGACAAGUAGAAGGCGCGUACA [JL Lego Mod 23] (Eterna round: R96, puzzle: Exclusion 3) with MS2 coat protein (enter value)
Result: 0.413 µM

Q: Hello, I am looking for reported apparent KD of MS2 coat protein with MS2 coat protein for GUACUAGAAUAUCAGUCGCACAUGAGGAUCACCCAUGUCAUGGGUAGAUCAAUAAAUAAAGAUACUGCUCGUCUUAU [Cac sensor turnoff var1 sub2] (Eterna round: R97, puzzle: Sensor, turn-off variant 1) . Could you help?
Result: 0.496 µM

Q: So what apparent KD of MS2 coat protein did UGUUGUCGCGUAGGAUAUUGUCAACAGGCAAUAGGAUAUGCGAAAGCAGAAGGAUCGCCAACAGGCGAGAAGGACGGGACAACU [pwkr exNG2 2xF7 2xFMN.5] (Eterna round: R96, puzzle: Exclusion NG 2) get with MS2 coat protein?
Result: 0.142 µM

Q: Query the reported apparent KD of MS2 coat protein for MS2 coat protein; item: AAGUCGAGCGUGAGGAUAUCGUUCGAACGACCGAACGAGAAGGCACAUGAGGAUCACCCAUGUGAUUCAGUUCA [Brourd's EX4 #46] (Eterna round: R97, puzzle: Brourd's mod of Exclusion 4)
Result: 0.0398 µM

Q: Request - read-out apparent KD of MS2 coat protein | tested on MS2 coat protein | sequence UUGGUUGUGGUAGGAUAUCCGUUGGAAACCGUCGGAGAAGGACCACAGUCACUGGGUCCUUGUCUGGUGGACUGGAAUCACCAU [pwkr exNG1 F6.15] (Eterna round: R96, puzzle: Exclusion NG 1)
Result: 0.153 µM
